B1: Mineralocorticoid receptor, residues 600 to 675; numbered along this chain, P08235 (parent)
chain: SKICLVCGDEASGCHYGVVTCGSCKVFFKRAVEGQHNYLCAGRNDCIIDKIRRKNCPACRLQKCLQAGMNLGARKS

- Variants of: B1
- ASSAY EXPLANATION: abundance fitness (aPCA) (normalised: wild type 0, dead -1); higher = more abundant; growth selection in yeast, the domain comes from the species named
- EXPERIMENTAL PARAMETERS: Homo sapiens
QUANTITY KIND: abundance fitness
// return a plain number; no unit text

A selection of reference data follows.
F28Y :: -0.095
I3L :: -0.239
C64P :: -0.869
K29R :: -0.021
E10Y :: -0.105

So, A41C ? Its abundance fitness was -0.017
